Test system: MDR1
EXPERIMENT: MDCK-MDR1 permeability assay
Assay type: in vitro ADME
EXPERIMENTAL CONDITIONS: dog, MDCK-MDR1, MDCK-MDR1 cells; Papp B→A divided by Papp A→B; 3 μM; 2 hours; read-out: Efflux ratio (ER)
Form field: efflux ratio at 2 h, 3 μM (one value per entry).

Worked examples follow.
1. Cc1c(Cl)ccc2c1[C@H]1CC[C@H](CC1)OCC1[C@@H](NS(C)(=O)=O)CCCN1C(=O)CO2 (stereo in doubt) | > 100
2. Cc1cccc2c1OCC(=O)N1CCC[C@H](NS(C)(=O)=O)C1CO[C@H]1CC[C@@H]2CC1 (stereo in doubt) | > 100
3. Cc1ncnc2c1[C@H]1CC[C@H](CC1)OCC1[C@@H](NS(=O)(=O)C(C)C)CCCN1C(=O)CO2 (stereo in doubt) | > 100
4. O=C1COc2ccccc2C2CCC(CC2)OC[C@H]2[C@@H](NS(=O)(=O)C(F)(F)F)CCCN12 (stereo in doubt) | 52

Please find the next compound below.
In: Request the reported efflux ratio at 2 h, 3 μM associated with C[C@@H]1CCN2C(=O)COc3ccccc3[C@H]3CC[C@H](CC3)OCC2[C@H]1NS(C)(=O)=O (mixture of isomers)
Out: > 100

Recorded values, source patent US12006330B2.
